Fold Change to Parental Apparent KD values for the binders below.
target: T1, human CD8 on human T cells (human, UniProt P01732 22-235); experiment: flow cytometry on human CD8+ T cells, titration
T1 construct: whole, on cells; the antibodies were raised against human CD8 alpha; also called CD8 on human CD8+ T cells; hCD8
T1 sequence (P01732 22-235): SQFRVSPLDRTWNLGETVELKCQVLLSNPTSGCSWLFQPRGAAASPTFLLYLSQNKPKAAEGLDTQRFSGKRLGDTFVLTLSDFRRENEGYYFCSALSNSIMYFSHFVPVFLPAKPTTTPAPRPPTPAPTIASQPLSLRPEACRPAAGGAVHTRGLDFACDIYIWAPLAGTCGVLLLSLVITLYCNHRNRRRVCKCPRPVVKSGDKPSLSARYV
Your answer should be a plain number; it is taken to be in fold.

>>> observed_value("humanized 02A01-VH4-VK2 (antibody, human IgG1, V domains shown, human IgG1 format; also called 02-VH4/VK2) VH: EVQLVQSGAEVKKPGATVKISCKASGYTFTDFTMHWVQQAPGKGLEWIGLVNPNNGGNIYAEKFQGRATLTVDTSTSTAYMELSSLRSEDTAVYYCGRVPLYTSHGMDYWGQGTLVTVSS VL: EIVLTQSPATLSVSPGERATISCRASESVDSYDINSMHWYQQKPGQAPRLLIYRASHLQSGIPARFSGSGSRTDFTLTISSVEPEDFATYYCQQSNEDPLTFGQGTKLEIK")
1.14

// recorded Fold Change to Parental Apparent KD for humanized 02A01-VH6-VK2 (antibody, human IgG1, V domains shown, human IgG1 format; also called 02-VH6/VK2) VH: EVQLVQSGAEVKKPGATVKISCKASGYTFTDFTMHWVQQAPGKGLEWIGLVNPNNGGNIYAEKFQGRVTLTVDTSTSTAYMELSSLRSEDTAVYYCGRVPLYTSHGMDYWGQGTLVTVSS VL: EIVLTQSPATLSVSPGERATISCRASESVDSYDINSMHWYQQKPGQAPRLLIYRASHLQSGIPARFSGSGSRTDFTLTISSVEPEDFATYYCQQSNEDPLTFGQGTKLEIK : 1.68

// recorded Fold Change to Parental Apparent KD for humanized 02A01-VH6-VK3 (antibody, human IgG1, V domains shown, human IgG1 format; also called 02-VH6/VK3) VH: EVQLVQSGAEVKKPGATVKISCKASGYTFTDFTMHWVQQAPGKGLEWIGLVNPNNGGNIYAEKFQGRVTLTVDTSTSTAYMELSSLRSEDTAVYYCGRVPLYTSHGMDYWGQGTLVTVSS VL: EIVLTQSPATLSLSPGERATISCRASESVDSYDINSMHWYQQKPGQAPRLLIYRASHLQSGIPARFSGSGSRTDFTLTISSLEPEDFATYYCQQSNEDPLTFGQGTKLEIK : 1.51
